tested on: AsPC-1 pancreatic cancer cells; experiment: Phototoxicity (PDT), MTT assay, AsPC-1; assay type: cell-based; conditions: 3.12 μM photosensitizer, 3 h, 50 mW 0.09 J/cm^2 laser 100 sec, 72 h incubation
Each entry below lists one item and its recorded Cell viability, Phototoxicity against AsPC-1 value.
Field: numeric (%). Do not append units.

**Q:** Record C=Cc1c(C)c2cc3nc(c(CC(=O)OC)c4[nH]c(cc5nc(cc1[nH]2)C(C)=C5CC)c(C)c4C(=O)NCCCNC(=O)CCCC(=O)Oc1ccc(/C=C/C(=O)CC(=O)/C=C/c2ccc(O)c(OC)c2)cc1OC)C(CCC(=O)OC)C3C (stereo not drawn) [Compound 7, Chlorine e6-curcumin Conjugate (7)] : what is its Cell viability, Phototoxicity against AsPC-1 with AsPC-1 pancreatic cancer cells?
**A:** 85.97

**Q:** Record C=Cc1c(C)c2cc3nc(c(CC(=O)OC)c4[nH]c(cc5nc(cc1[nH]2)C(C)=C5CC)c(C)c4C(=O)NCCOCCOCCNC(=O)CCCC(=O)Oc1ccc(/C=C/C(=O)CC(=O)/C=C/c2ccc(O)c(OC)c2)cc1OC)C(CCC(=O)OC)C3C (stereo not drawn) [Compound 13, Chlorine e6-curcumin Conjugate (13)] : what is its Cell viability, Phototoxicity against AsPC-1 with AsPC-1 pancreatic cancer cells?
**A:** 7.34

**Q:** Record C=Cc1c(C)c2cc3nc(c(CC(=O)OC)c4[nH]c(cc5nc(cc1[nH]2)C(C)=C5CC)c(C)c4C(=O)NCCCCCCNC(=O)CCCC(=O)Oc1ccc(/C=C/C(=O)CC(=O)/C=C/c2ccc(O)c(OC)c2)cc1OC)C(CCC(=O)OC)C3C (stereo not drawn) [Compound 10, Chlorine e6-curcumin Conjugate (10)] : what is its Cell viability, Phototoxicity against AsPC-1 with AsPC-1 pancreatic cancer cells?
**A:** 85.90

###

Each entry below lists one item and its recorded viability at 6.25 μM value.
assay: Dark cytotoxicity, MTT assay, MIA-PaCa-2; type: cell-based; details: human, MIA-PaCa-2 cells; 6.25 μM photosensitizer, 3 h, no light, 72 h incubation; read-out: Cell viability, Dark cytotoxicity against MIA-PaCa-2

molecule | endpoint_name | test_value
C=Cc1c(C)c2cc3nc(c(CC(=O)OC)c4[nH]c(cc5nc(cc1[nH]2)C(C)=C5CC)c(C)c4C(=O)NCCOCCOCCNC(=O)CCCC(=O)Oc1ccc(/C=C/C(=O)CC(=O)/C=C/c2ccc(O)c(OC)c2)cc1OC)C(CCC(=O)OC)C3C (stereo not shown) [Compound 13, Chlorine e6-curcumin Conjugate (13)] | viability at 6.25 μM | 115%
C=Cc1c(C)c2cc3nc(c(CC(=O)O)c4[nH]c(cc5nc(cc1[nH]2)C(C)=C5CC)c(C)c4C(=O)O)[C@@H](CCC(=O)O)[C@@H]3C | viability at 6.25 μM | 101%

**Q:** Find the recorded viability at 6.25 μM belonging to C=Cc1c(C)c2cc3nc(c(CC(=O)OC)c4[nH]c(cc5nc(cc1[nH]2)C(C)=C5CC)c(C)c4C(=O)NCCCCCCNC(=O)CCCC(=O)Oc1ccc(/C=C/C(=O)CC(=O)/C=C/c2ccc(O)c(OC)c2)cc1OC)C(CCC(=O)OC)C3C (stereo not shown) [Compound 10, Chlorine e6-curcumin Conjugate (10)] and report it.
**A:** 82%

**Q:** Find the recorded viability at 6.25 μM belonging to C=Cc1c(C)c2cc3nc(c(CC(=O)OC)c4[nH]c(cc5nc(cc1[nH]2)C(C)=C5CC)c(C)c4C(=O)NCCCOCCOCCOCCCNC(=O)CCCC(=O)Oc1ccc(/C=C/C(=O)CC(=O)/C=C/c2ccc(O)c(OC)c2)cc1OC)[C@@H](CCC(=O)OC)[C@@H]3C [Compound 16, Chlorine e6-curcumin Conjugate (16)] and report it.
**A:** 121%
